Reference source: ChEMBL document CHEMBL3044663

Test system: Salmonella
test name: Antibacterial activity against Salmonella 21.3 after 24 hr by disk diffusion method; also: test concentration or dose not given here
Format: functional
measurement label: diameter of the inhibition zone (DIZ)

See these solved cases before continuing.
Query: Any idea what diameter of the inhibition zone (DIZ) came out for O=C1CCCC2=C1C(c1cccc(C3C4=C(CCCC4=O)N(c4cccc(C(=O)O)c4)C4=C3C(=O)CCC4)c1)C1=C(CCCC1=O)N2c1cccc(C(=O)O)c1 on Salmonella?
Result: 11 mm

Query: Any idea what diameter of the inhibition zone (DIZ) came out for Cc1cccc(N2C3=C(C(=O)CCC3)C(c3cccc(C4C5=C(CCCC5=O)N(c5cccc(C)n5)C5=C4C(=O)CCC5)c3)C3=C2CCCC3=O)n1 on Salmonella?
Result: 9 mm

Query: Any idea what diameter of the inhibition zone (DIZ) came out for CC1(C)CC(=O)C2=C(C1)N(c1cccc(C#N)c1)C1=C(C(=O)CC(C)(C)C1)C2c1cccc(C2C3=C(CC(C)(C)CC3=O)N(c3cccc(C#N)c3)C3=C2C(=O)CC(C)(C)C3)c1 on Salmonella?
Result: 10 mm

Query: Any idea what diameter of the inhibition zone (DIZ) came out for COc1ccccc1N1C2=C(C(=O)CC(C)(C)C2)C(c2cccc(C3C4=C(CC(C)(C)CC4=O)N(c4ccccc4OC)C4=C3C(=O)CC(C)(C)C4)c2)C2=C1CC(C)(C)CC2=O on Salmonella?
Result: 8 mm

Query: Any idea what diameter of the inhibition zone (DIZ) came out for N#Cc1ccccc1N1C2=C(C(=O)CCC2)C(c2cccc(C3C4=C(CCCC4=O)N(c4ccccc4C#N)C4=C3C(=O)CCC4)c2)C2=C1CCCC2=O on Salmonella?
Result: 11 mm

***
Query: Any idea what diameter of the inhibition zone (DIZ) came out for O=C1CCCC2=C1C(c1cccc(C3C4=C(CCCC4=O)N(c4ccc(C(=O)O)cc4)C4=C3C(=O)CCC4)c1)C1=C(CCCC1=O)N2c1ccc(C(=O)O)cc1 on Salmonella?
Result: 8 mm

Query: Any idea what diameter of the inhibition zone (DIZ) came out for CC1(C)CC(=O)C2=C(C1)N(c1cccc(C(=O)O)c1)C1=C(C(=O)CC(C)(C)C1)C2c1cccc(C2C3=C(CC(C)(C)CC3=O)N(c3cccc(C(=O)O)c3)C3=C2C(=O)CC(C)(C)C3)c1 on Salmonella?
Result: 11 mm

Query: Any idea what diameter of the inhibition zone (DIZ) came out for CC1(C)CC(=O)C2=C(C1)N(c1ccc(Br)cc1)C1=C(C(=O)CC(C)(C)C1)C2c1ccc(C2C3=C(CC(C)(C)CC3=O)N(c3ccc(Br)cc3)C3=C2C(=O)CC(C)(C)C3)cc1 on Salmonella?
Result: 10 mm

Query: Any idea what diameter of the inhibition zone (DIZ) came out for COc1cccc(N2C3=C(C(=O)CCC3)C(c3cccc(C4C5=C(CCCC5=O)N(c5cccc(OC)c5)C5=C4C(=O)CCC5)c3)C3=C2CCCC3=O)c1 on Salmonella?
Result: 12 mm

Query: Any idea what diameter of the inhibition zone (DIZ) came out for CC1(C)CC(=O)C2=C(C1)N(c1ccc(C(=O)O)cc1)C1=C(C(=O)CC(C)(C)C1)C2c1cccc(C2C3=C(CC(C)(C)CC3=O)N(c3ccc(C(=O)O)cc3)C3=C2C(=O)CC(C)(C)C3)c1 on Salmonella?
Result: 9 mm

----------
Tested on: Bacillus subtilis
test name: Antibacterial activity against Bacillus subtilis RSKK 240 after 24 hr by disk diffusion method; also: test concentration or dose not given here
Assay type: functional
Catalogue of diameter of the inhibition zone (DIZ) values

Query: What does the record list as diameter of the inhibition zone (DIZ) for O=C1CCCC2=C1C(c1cccc(C3C4=C(CCCC4=O)N(c4cccc(C(=O)O)c4)C4=C3C(=O)CCC4)c1)C1=C(CCCC1=O)N2c1cccc(C(=O)O)c1 ?
Result: 9 mm

Field: next molecule
Query: What does the record list as diameter of the inhibition zone (DIZ) for CC1(C)S[C@@H]2[C@H](NC(=O)[C@H](N)c3ccccc3)C(=O)N2[C@H]1C(=O)O [AMPICILLIN] ?
Result: 24 mm
